Assay: Verification pharmacokinetic experiment in rats, SPC 60 g crude drug/kg by gavage, UFLC-MS/MS, DAS 2.0
Assay type: in vivo, rat
Settings: rat, plasma, oral; time 0.25 h; rats p.o. SPC 60 g crude drug/kg; doses of 1-4: 0.124, 0.22, 1.4, 2.62 mg/kg; 5 rats
value-kind: concentration at 0.25 h
Please answer using the number first and the unit second.

In: Name the recorded concentration at 0.25 h for COc1ccc(-c2coc3c(OC)c(O)ccc3c2=O)cc1 .
Out: 22.9 ng/mL

In: // query: O=c1c(-c2ccc(O)cc2)coc2cc(O[C@@H]3O[C@H](CO)[C@@H](O)[C@H](O)[C@H]3O)ccc12
Out: 28 ng/mL

In: // query: COc1cc([C@H]2c3cc(O)c(OC)cc3C[C@@H](CO)[C@@H]2CO)ccc1O
Out: 41.5 ng/mL

In: // query: COc1cc(-c2coc3cc(O)ccc3c2=O)ccc1O
Out: 5.52 ng/mL
